Target: FK506-binding protein 12 (human, UniProt P62942 1-108)
Sequence (P62942 whole entry): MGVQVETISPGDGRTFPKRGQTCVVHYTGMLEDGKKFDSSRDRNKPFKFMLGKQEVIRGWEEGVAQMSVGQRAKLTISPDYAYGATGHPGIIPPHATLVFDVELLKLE
Test: fluorescence polarisation
Non-standard residues stand in square brackets, D forms with d. *: point of attachment. Dkb = 3,3-dimethyl-2-ketobutyryl, CC(C)(C)C(=O)C(=O)*; d(β3hF) = N[C@@H](CC(=O)O)Cc1ccccc1; Pip = O=C(O)[C@@H]1CCCCN1
I'd be grateful if you could share measured pIC50 for these entries.
In simple prose, pIC50 is minus the logarithm base ten of a concentration in moles per litre.

Value lookup for pIC50; key = cyclo(A[dF]P[dA][Dkb][Pip][d(β3hF)]Q) (also: 5 Dkb: ester to 4) [rapalog 12 (R3 Pro, R4 D-Phe)]
4.06

Subsequent entry: cyclo(AAP[dA][Dkb][Pip][d(β3hF)]Q) (also: 5 Dkb: ester to 4) [rapalog 12 (R3 Pro, R4 Ala)]
4.68

Subsequent entry: cyclo([dV]P[dA][Dkb][Pip][d(β3hF)]Q) (also: 4 Dkb: ester to 3) [rapalog 11 (R3 Pro, R4 D-Val)]
4.19

Subsequent entry: cyclo(GK[dA][Dkb][Pip][d(β3hF)]Q) (also: ester bond between residues 3 and 4) [rapalog 11 (R3 Lys, R4 Gly)]
4.03

Values from paper PMC3171579
